Each recorded value in this set is attributed to paper PMC3894848.

Attribute: loss in activity/affinity toward BRD4 BrD1 vs MS435
biological target: BRD4 BrD1 (Homo sapiens); test: Fluorescence anisotropy competition binding assay; conditions: vs MS435
Please reply with the bare figure in fold and do not write the unit itself.

Some molecules with recorded loss in activity/affinity toward BRD4 BrD1 vs MS435:
Cc1nc(/N=N/c2ccc(S(=O)(=O)Nc3ccccn3)cc2)c(C)c(C)c1O; 3
Cc1cc(/N=N/c2ccc(S(=O)(=O)N(C)c3ccccn3)cc2)cc(C)c1O; 9

**Q:** State its loss in activity/affinity toward BRD4 BrD1 vs MS435: Cc1cc(/N=N/c2ccc(S(=O)(=O)Nc3ccccn3)cc2)nc(C)c1O
**A:** 3

---

target: BRD4 BrD1 (Homo sapiens, UniProt O60885); experiment: Fluorescence anisotropy competition binding assay; details: fluorescence anisotropy/polarization assay
Value type: binding activity toward BRD4 BrD1 (in words)

Cc1cc(/N=N/c2ccc(S(=O)(=O)NCc3ccc(C(F)(F)F)cc3)cc2)ccc1O [Compound 35]; deteriorated drastically
Cc1cc(/N=N/c2ccc(S(=O)(=O)NCc3ccc(C(F)(F)F)cc3)cc2)cc(C)c1O [Compound 5]; deteriorated drastically
Cc1cc(/N=N/c2ccc(S(=O)(=O)NCc3ccc(C(F)(F)F)cc3)cc2)c(N)cc1O [Compound 36]; deteriorated drastically
